Listed compounds paired with reported Emax
Molecular target: hCB2 receptor (Homo sapiens)
Sequence (P34972 whole entry): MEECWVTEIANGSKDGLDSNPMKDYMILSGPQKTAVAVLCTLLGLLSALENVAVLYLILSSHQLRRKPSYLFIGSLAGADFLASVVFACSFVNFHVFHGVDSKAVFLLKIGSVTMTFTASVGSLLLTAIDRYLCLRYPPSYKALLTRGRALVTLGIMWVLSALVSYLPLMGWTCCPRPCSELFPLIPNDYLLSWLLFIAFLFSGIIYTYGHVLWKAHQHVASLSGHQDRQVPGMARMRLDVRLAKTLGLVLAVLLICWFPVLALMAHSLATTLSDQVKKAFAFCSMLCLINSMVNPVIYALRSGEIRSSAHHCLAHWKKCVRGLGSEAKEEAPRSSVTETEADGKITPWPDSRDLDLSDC
Assay: Agonism of CB2 by detection of cAMP using HTRF
Type: cell-based
Conditions: CHO cells stably expressing CB2 receptor; normalized to DMSO and maximal activation (5 nM CP55940)

CC(C)(C)NC(=O)c1c2c(nn1-c1c[n+]([O-])ccn1)CC1CCC2O1 (stereo not shown) [Compound 49] = 80.3%
CC(C)(C)NC(=O)c1nn(-c2cnccn2)c2c1C1CCC(C2)O1 (stereo not shown) [Compound 45] = 98.1%

Please give the documented Emax of CC(C)(C)c1nnc(-c2nn(-c3cnccn3)c3c2CC2CCC3O2)s1 (stereo not shown) [Compound 38]
100%

Identify measured Emax corresponding to O=C(NC12CC3CC(CC1C3)C2)c1nn(-c2c[n+]([O-])ccn2)c2c1CC1CCC2O1 (stereo not shown) [Compound 21]
99.9%

Using known records, supply Emax for CC(C)(C)c1cnc(-c2nn(-c3cnccn3)c3c2CC2CCC3O2)o1 (stereo not shown) [Compound 40]
99.7%

Return reported Emax. Input compound: CC(C)(C)NC(=O)c1c2c(nn1-c1ccc(F)cc1F)C1CCC(C2)O1 (stereo not shown) [Compound 2]
72.8%

Provide one value: measured Emax of CC(C)(C)NC(=O)c1nn(-c2ccc(F)cc2F)c2c1CC1CCC2O1 (stereo not shown) [Compound 1]
95.6%

###

Biological target: UniProt P34972
Experiment: Agonism of CB2 by detection of cAMP using HTRF
Type: cell-based
Settings: CHO cells stably expressing CB2 receptor; normalized to DMSO and maximal activation (5 nM CP55940)
metric: Emax (%)
// units = %; emit number, no label

CC(C)(C)c1nnc(-c2nn(-c3c[n+]([O-])ccn3)c3c2CC2CCC3O2)s1 (stereo not drawn) = 99

Note down Emax recorded for O=C(NC[C@]12C[C@@H]3C[C@@H](C[C@@H](C3)C1)C2)c1nn(-c2ccc(F)cc2F)c2c1CC1CCC2O1
77.1

Determine from records and report Emax for CC(C)(C)NC(=O)c1nn(-c2c[n+]([O-])ccn2)c2c1C1CCC(C2)O1 (stereo not drawn)
99.9

Give the reported value of Emax for this record: CC(C)(C)c1noc(-c2nn(-c3c[n+]([O-])ccn3)c3c2CC2CCC3O2)n1 (stereo not drawn)
100

Input O=C(NC12CC(C1)C2)c1nn(-c2cnccn2)c2c1CC1CCC2O1 (stereo not drawn) , output reported Emax.
99.5

Look up and state reported Emax for CC(C)(C)[C@@H](CO)NC(=O)c1nn(-c2c[n+]([O-])ccn2)c2c1C[C@@H]1CC[C@H]2O1
101

Origin of the recorded values: patent US20240109910A1
